Attribute: pIC50
Molecular target: recombinant full-length HSET (Homo sapiens)
Construct: 5 nM full-length human N-terminal His-tag HSET; His-tag (N)
Sequence (Q9BW19 1-673): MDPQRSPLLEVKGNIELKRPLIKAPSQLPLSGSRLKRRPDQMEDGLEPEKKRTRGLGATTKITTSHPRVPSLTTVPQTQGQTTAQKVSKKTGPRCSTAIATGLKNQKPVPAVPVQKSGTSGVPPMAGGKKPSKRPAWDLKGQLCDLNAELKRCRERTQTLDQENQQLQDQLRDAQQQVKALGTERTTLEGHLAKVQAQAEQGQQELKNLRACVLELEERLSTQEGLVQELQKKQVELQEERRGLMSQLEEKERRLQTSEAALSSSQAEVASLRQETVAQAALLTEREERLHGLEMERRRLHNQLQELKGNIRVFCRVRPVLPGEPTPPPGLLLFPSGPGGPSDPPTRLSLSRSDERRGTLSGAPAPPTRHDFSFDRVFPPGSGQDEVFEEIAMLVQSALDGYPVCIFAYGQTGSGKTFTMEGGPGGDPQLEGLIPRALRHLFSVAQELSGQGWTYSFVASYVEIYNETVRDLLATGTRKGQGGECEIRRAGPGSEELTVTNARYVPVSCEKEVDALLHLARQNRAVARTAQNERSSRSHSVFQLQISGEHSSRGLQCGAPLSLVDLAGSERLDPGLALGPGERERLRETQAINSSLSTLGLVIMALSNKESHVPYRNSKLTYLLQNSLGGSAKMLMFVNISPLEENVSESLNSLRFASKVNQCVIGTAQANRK
Assay: ADP-Glo HSET assay (3 μM ATP), microtubule-stimulated ATPase
Assay type: biochemical
Settings: preformed microtubules, 3 μM ATP; mean (±SD) n ≥ 3; >200 from a single determination (Table 2); read-out: HSET ADP-Glo IC50
Formally, pIC50 is defined as -log10 of the concentration c, with c in mol/L.

// known answers, use as guide
CCOC(=O)c1sc(NC(=O)C[C@@H](C)NC(=O)c2cccc(-c3noc(C)n3)c2)nc1C : 6.54
CCOC(=O)c1sc(NC(=O)CCN(C)C(=O)c2cccc(-c3noc(C)n3)c2)nc1C : 4.35
CCCOC(=O)c1sc(NC(=O)CCNC(=O)c2cccc(-c3noc(C)n3)c2)nc1C : 7.92

## Task Fill in the blank: the reported pIC50 of "CCOC(=O)c1sc(NC(=O)CCNC(=O)c2cccc(-c3noc(C)n3)c2)cc1C" is ____.
## Result 7.03

###

Target: recombinant full-length HSET (Homo sapiens)
Construct: 5 nM full-length human N-terminal His-tag HSET; His-tag (N)
Experiment: ADP-Glo HSET assay (3 μM ATP), microtubule-stimulated ATPase
Format: biochemical
Settings: preformed microtubules, 3 μM ATP; mean (±SD) n ≥ 3; >200 from a single determination (Table 1); read-out: HSET ADP-Glo IC50
property.label: IC50

Would you please look over these solved cases?
CCOC(=O)c1sc(NC(=O)CCNC(=O)c2cccc(-c3n[nH]c(C)n3)c2)nc1C : > 200 µM
CCOC(=O)c1sc(NC(=O)CCNC(=O)c2cccc(OC)c2)nc1C : 3.54 µM
CCOC(=O)c1sc(NC(=O)CCNC(=O)c2cccc(-c3noc(CC)n3)c2)nc1C : 2.1 µM
CCOC(=O)c1sc(NC(=O)CCNC(=O)c2ccccc2)nc1C : > 200 µM
CCOC(=O)c1sc(NC(=O)CCNC(C)=O)nc1C : > 200 µM

## Task // query IC50 value for entry CCCc1cc(C(=O)N[C@H](Cc2ccc(-c3cccc(OC(F)(F)F)c3)nc2)C(=O)N[C@@H]2CCNC2)sc1C [Compound 1, reference compound]
## Result 0.171 µM

## Task Dear colleague, I am looking for the recorded IC50 of the following compound: "CCOC(=O)c1sc(NC(=O)CCNC(=O)c2cccc(Cl)c2)nc1C"
## Result > 200 µM

## Task IC50 for "CCOC(=O)c1sc(NC(=O)CCNC(=O)c2cccc(-c3nc(C)no3)c2)nc1C" ?
## Result 0.101 µM
